test-system: aromatase (Homo sapiens, UniProt P11511)
Sequence (P11511 1-503): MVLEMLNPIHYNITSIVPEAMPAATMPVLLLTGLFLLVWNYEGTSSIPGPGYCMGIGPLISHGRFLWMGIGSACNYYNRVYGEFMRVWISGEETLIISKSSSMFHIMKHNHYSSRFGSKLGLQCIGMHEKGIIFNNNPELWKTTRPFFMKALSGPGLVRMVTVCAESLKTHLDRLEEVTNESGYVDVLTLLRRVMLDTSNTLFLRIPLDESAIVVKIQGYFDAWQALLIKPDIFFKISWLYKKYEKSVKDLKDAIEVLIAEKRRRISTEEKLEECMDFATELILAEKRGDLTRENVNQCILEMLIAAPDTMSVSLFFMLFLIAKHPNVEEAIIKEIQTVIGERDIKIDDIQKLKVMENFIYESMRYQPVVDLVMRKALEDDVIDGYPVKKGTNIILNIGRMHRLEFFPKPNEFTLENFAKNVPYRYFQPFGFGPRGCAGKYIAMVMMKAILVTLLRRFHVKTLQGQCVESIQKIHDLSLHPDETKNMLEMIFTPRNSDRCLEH
measurement-protocol: Cell-free fluorescence-based aromatase inhibition assay (DBF hydrolysis)
Type: biochemical
Set-up: purchased Corning (Woburn, MA, USA)
measurement-context: DBF substrate, maximum con. 10 mM
quantity: IC50

# molecule, quantity, value
records = [
    ("O=C/C=C/c1ccccc1", "IC50", "> 10 mM"),
    ("O=C1CC(c2ccc(O)cc2)Oc2cc(O)ccc21 (stereo not drawn)", "IC50", "1.61 mM"),
    ("CC1(C)[C@@H](O[C@H]2O[C@H](C(=O)O)[C@@H](O)[C@H](O)[C@H]2O[C@@H]2O[C@H](C(=O)O)[C@@H](O)[C@H](O)[C@H]2O)CC[C@]2(C)[C@H]3C(=O)C=C4[C@@H]5C[C@@](C)(C(=O)O)CC[C@]5(C)CC[C@@]4(C)[C@]3(C)CC[C@@H]12", "IC50", "> 10 mM"),
    ("CN[C@@H](C)[C@H](O)c1ccccc1", "IC50", "> 10 mM"),
    ("O=C(O)/C=C/c1ccccc1", "IC50", "> 10 mM"),
]

Let us move to another entry and its IC50.
IN: Would you mind telling me what IC50 value was observed for `O=c1ccc2ccccc2o1` ?
OUT: > 10 mM
